- Test system: SF-268
- assay procedure: NCI60 antitumor screening
- Format: cell-based, human
- experimental conditions: 10 μM one-dose
observed property: GI% (%)
Hi! Could you send only the number? It should be in %, unit omitted.

Past entries and their recorded results:
                                   compound  measured_target  unit  numeric_readout
0  N#Cc1c(-c2ccc(F)cc2)nc(SCc2ccc([N+](=O)[O-])cc2)nc1N1CCOCC1 [4c]           SF-268     %            50.66
1  N#Cc1c(Cl)nc(SCc2ccccc2)nc1-c1ccc(F)cc1 [3a]           SF-268     %            21.56
2  Cc1ccc(CSc2nc(-c3ccc(F)cc3)c(C#N)c(N3CCOCC3)n2)cc1 [4d]           SF-268     %            22.32
3  Cc1ccc(CSc2nc(Cl)c(C#N)c(-c3ccc(F)cc3)n2)cc1 [3d]           SF-268     %            12.95
4  N#Cc1c(-c2ccc(F)cc2)nc(SCc2ccc(F)cc2)nc1N1CCOCC1 [4b]           SF-268     %            56.58

What the record says about N#Cc1c(Cl)nc(SCc2ccc([N+](=O)[O-])cc2)nc1-c1ccc(F)cc1 [3c] : GI% is 18.20

// GI% value for N#Cc1c(-c2ccc(F)cc2)nc(SCc2ccc(F)cc2)[nH]c1=O [2b] : 24.67

* * *

- System: K-562
- assay procedure: NCI60 antitumor screening
- Format: cell-based, human
- experimental conditions: Homo sapiens; 10 μM single dose; (leukaemia); read-out: growth inhibition percent (GI%)
Reported inhibition at 10 µM values follow for various compounds

>>> print(df.to_string())
                                   compound  result
0  N#Cc1c(-c2ccc(F)cc2)nc(SCc2ccccc2)nc1N1CCNCC1 [4e]  > 100%
1  Cc1ccc(CSc2nc(-c3ccc(F)cc3)c(C#N)c(N3CCN(c4ccccc4)CC3)n2)cc1 [4p]     18%

// below: inhibition at 10 µM requested for another compound
Summary for this compound, CN1CCN(c2nc(SCc3ccc(F)cc3)nc(-c3ccc(F)cc3)c2C#N)CC1 [4j] : inhibition at 10 µM is 18.5%

* * *

- Tested on: 786–0
- assay procedure: NCI60 antitumor screening
- Assay type: cell-based, human
- experimental conditions: Homo sapiens; 10 μM single dose; 786–0 (renal cancer); read-out: growth inhibition percent (GI%)
Attribute: inhibition at 10 µM

Example compounds with recorded inhibition at 10 µM:
>>> print(df.to_string())
                               smiles_input    observed_property  result
0  Cc1ccc(CSc2nc(-c3ccc(F)cc3)c(C#N)c(N3CCNCC3)n2)cc1  inhibition at 10 µM   < 10%
1  Cc1ccc(CSc2nc(-c3ccc(F)cc3)c(C#N)c(N3CCN(C)CC3)n2)cc1  inhibition at 10 µM   44.2%
2  CN1CCN(c2nc(SCc3ccc([N+](=O)[O-])cc3)nc(-c3ccc(F)cc3)c2C#N)CC1  inhibition at 10 µM   26.4%
3  N#Cc1c(-c2ccc(F)cc2)nc(SCc2ccccc2)nc1N1CCNCC1  inhibition at 10 µM  > 100%
4  CN1CCN(c2nc(SCc3ccccc3)nc(-c3ccc(F)cc3)c2C#N)CC1  inhibition at 10 µM   29.3%

Sample N#Cc1c(-c2ccc(F)cc2)nc(SCc2ccc(F)cc2)nc1N1CCN(c2ccccc2)CC1 ; inhibition at 10 µM observed: < 10%

Measured inhibition at 10 µM, N#Cc1c(-c2ccc(F)cc2)nc(SCc2ccc([N+](=O)[O-])cc2)nc1N1CCN(c2ccccc2)CC1 : < 10%

Summary for this compound, N#Cc1c(-c2ccc(F)cc2)nc(SCc2ccc(F)cc2)nc1N1CCNCC1 : inhibition at 10 µM is > 100%

Given item Cc1ccc(CSc2nc(-c3ccc(F)cc3)c(C#N)c(N3CCN(c4ccccc4)CC3)n2)cc1 , the value recorded as its inhibition at 10 µM is < 10%

* * *

- System: RXF 393
- assay procedure: NCI60 antitumor screening
- Type: cell-based, human
- experimental conditions: 10 μM one-dose, Table 1
observed property: GI%

>>> df
                               smiles_input  observed_property              result
0  CN1CCN(c2nc(SCc3ccccc3)nc(-c3ccc(F)cc3)c2C#N)CC1                GI%  — (GI value > 70%)
1  N#Cc1c(-c2ccc(F)cc2)nc(SCc2ccc(F)cc2)nc1N1CCOCC1                GI%  — (GI value > 70%)
2  Cc1ccc(CSc2nc(-c3ccc(F)cc3)c(C#N)c(N3CCOCC3)n2)cc1                GI%  — (GI value > 70%)
3  N#Cc1c(-c2ccc(F)cc2)nc(SCc2ccc(F)cc2)[nH]c1=O                GI%  — (GI value > 70%)

With RXF 393 as the test system, CN1CCN(c2nc(SCc3ccc(F)cc3)nc(-c3ccc(F)cc3)c2C#N)CC1 showed GI% of 80.61%

RXF 393 GI% of N#Cc1c(-c2ccc(F)cc2)nc(SCc2ccc([N+](=O)[O-])cc2)nc1N1CCOCC1 is 90.21%

* * *

- Tested on: SF-295
- assay procedure: NCI60 antitumor screening
- Format: cell-based, human
- experimental conditions: Homo sapiens; 10 μM single dose; SF-295 (CNS cancer); read-out: growth inhibition percent (GI%)
observed property: inhibition at 10 µM

inhibition at 10 µM value, target or system SF-295, for N#Cc1c(-c2ccc(F)cc2)nc(SCc2ccc(F)cc2)nc1N1CCN(c2ccccc2)CC1 : < 10%

Response field inhibition at 10 µM (SF-295) for item N#Cc1c(-c2ccc(F)cc2)nc(SCc2ccccc2)nc1N1CCN(c2ccccc2)CC1 : < 10%

SF-295 assay, compound N#Cc1c(-c2ccc(F)cc2)nc(SCc2ccc([N+](=O)[O-])cc2)nc1N1CCN(c2ccccc2)CC1 , recorded inhibition at 10 µM = < 10%

* * *

# Lookup of reported GI% keyed by entry
- Tested on: SK-OV-3
- assay procedure: NCI60 antitumor screening
- Format: cell-based, human
- experimental conditions: 10 μM one-dose
State the answer as a number, implicitly in %.

Check out these entries, answers already filled in.
>>> df
                               smiles_input  measured_target  numeric_readout
0  N#Cc1c(-c2ccc(F)cc2)nc(SCc2ccc([N+](=O)[O-])cc2)nc1N1CCOCC1          SK-OV-3            55.46
1  Cc1ccc(CSc2nc(-c3ccc(F)cc3)c(C#N)c(N3CCOCC3)n2)cc1          SK-OV-3            11.69
2  N#Cc1c(Cl)nc(SCc2ccc([N+](=O)[O-])cc2)nc1-c1ccc(F)cc1          SK-OV-3            11.73
3  N#Cc1c(-c2ccc(F)cc2)nc(SCc2ccc(F)cc2)[nH]c1=O          SK-OV-3            26.25

Now consider the entry below.
Item: N#Cc1c(-c2ccc(F)cc2)nc(SCc2ccc(F)cc2)nc1N1CCOCC1 | GI%: 60.37

* * *

- System: T-47D
- assay procedure: NCI60 antitumor screening
- Assay type: cell-based, human
- experimental conditions: 10 μM one-dose
Items are presented alongside their recorded GI%.

Examples from the recorded data:
In [3]: df
Out[3]:
                                   compound  observed_property  result
0  Cc1ccc(CSc2nc(Cl)c(C#N)c(-c3ccc(F)cc3)n2)cc1 [3d]                GI%  46.84%
1  Cc1ccc(CSc2nc(-c3ccc(F)cc3)c(C#N)c(=O)[nH]2)cc1 [2d]                GI%  13.50%

Per the records, this compound ( N#Cc1c(Cl)nc(SCc2ccc(F)cc2)nc1-c1ccc(F)cc1 [3b] ) has GI% equal to 33.18%

Recorded GI% (compound N#Cc1c(Cl)nc(SCc2ccccc2)nc1-c1ccc(F)cc1 [3a] ): 10.38%

Record N#Cc1c(-c2ccc(F)cc2)nc(SCc2ccc([N+](=O)[O-])cc2)nc1N1CCOCC1 [4c] , field GI%: 44.55%

The compound identified as N#Cc1c(-c2ccc(F)cc2)nc(SCc2ccc(F)cc2)[nH]c1=O [2b] registered its GI% at 25.99%

* * *

Reported inhibition at 10 µM values for a set of molecules
- Test system: U251
- assay procedure: NCI60 antitumor screening
- Assay type: cell-based, human
- experimental conditions: Homo sapiens, U-251; 10 μM single dose; U251 (CNS cancer); read-out: growth inhibition percent (GI%)

>>> df
                                   molecule    observed_property  result
0  Cc1ccc(CSc2nc(-c3ccc(F)cc3)c(C#N)c(N3CCNCC3)n2)cc1 [4h]  inhibition at 10 µM   < 10%

Record Cc1ccc(CSc2nc(-c3ccc(F)cc3)c(C#N)c(N3CCN(c4ccccc4)CC3)n2)cc1 [4p] . Reported inhibition at 10 µM: < 10%

Recorded result, N#Cc1c(-c2ccc(F)cc2)nc(SCc2ccc([N+](=O)[O-])cc2)nc1N1CCN(c2ccccc2)CC1 [4o] , inhibition at 10 µM: < 10%

So for N#Cc1c(-c2ccc(F)cc2)nc(SCc2ccc(F)cc2)nc1N1CCN(c2ccccc2)CC1 [4n] , the logged inhibition at 10 µM turned out to be < 10%

Noted for N#Cc1c(-c2ccc(F)cc2)nc(SCc2ccccc2)nc1N1CCNCC1 [4e] : its inhibition at 10 µM reads > 100%

Entry N#Cc1c(-c2ccc(F)cc2)nc(SCc2ccc([N+](=O)[O-])cc2)nc1N1CCNCC1 [4g] ; inhibition at 10 µM = < 10%

Entry N#Cc1c(-c2ccc(F)cc2)nc(SCc2ccc(F)cc2)nc1N1CCNCC1 [4f] ; inhibition at 10 µM = > 100%

Consider CN1CCN(c2nc(SCc3ccccc3)nc(-c3ccc(F)cc3)c2C#N)CC1 [4i] . Its measured inhibition at 10 µM is < 10%

The value of inhibition at 10 µM measured for the molecule CN1CCN(c2nc(SCc3ccc(F)cc3)nc(-c3ccc(F)cc3)c2C#N)CC1 [4j] turned out to be 26.2%

The molecule CN1CCN(c2nc(SCc3ccc([N+](=O)[O-])cc3)nc(-c3ccc(F)cc3)c2C#N)CC1 [4k] showed inhibition at 10 µM equal to < 10%

Record N#Cc1c(-c2ccc(F)cc2)nc(SCc2ccccc2)nc1N1CCN(c2ccccc2)CC1 [4m] , field inhibition at 10 µM: < 10%

Input Cc1ccc(CSc2nc(-c3ccc(F)cc3)c(C#N)c(N3CCN(C)CC3)n2)cc1 [4l] . Output inhibition at 10 µM: < 10%
